These entries and their values trace back to patent US20030236218A1.

Test: Pharmacokinetic studies in mice, intravenous administration
Assay type: in vivo, Balb/c mice
Settings: female, Balb/c, mouse, in vivo, iv, 100 mg/kg, plasma analyte = label; after i.v. 100 mg/kg compound 113; mean ± S.E.M
propertyLabel: clearance (mL/min/kg)
Form entry: value (mL/min/kg) — number only.

Name the reported clearance value associated with the compound COC(=O)C(C)NP(=O)(OC[C@@H]1C=C[C@H](n2cc(C)c(=O)[nH]c2=O)O1)Oc1ccc(Br)cc1 (stereo partly shown)
174

###

Assay: Pharmacokinetic studies in mice, oral administration
Format: in vivo, Balb/c mice
Conditions: mouse, in vivo, po; mice; orally administered d4T
propertyLabel: half-life
Hi, when you answer, please include the unit after the number. Thanks!

Form field: reported half-life of Cc1cn([C@H]2C=C[C@@H](CO)O2)c(=O)[nH]c1=O [d4T, 2′, 3′-Didehydro-3′-deoxy thymidine, reference compound]
18 min

###

Assay: Pharmacokinetic studies in mice, intravenous administration
Format: in vivo, Balb/c mice
Conditions: female, Balb/c, mouse, in vivo, iv, 75 mg/kg, plasma analyte = label; after i.v. 75 mg/kg Ala-d4T-MP; estimate from composite curve of pooled data; read-out: tmax (converted)
propertyLabel: Tmax
Write the numeric value and follow it with the unit.

Record request: Tmax value, item Cc1cn([C@H]2C=C[C@@H](CO)O2)c(=O)[nH]c1=O [d4T, 2′, 3′-Didehydro-3′-deoxy thymidine, reference compound]
4.4 min

###

Assay: Octanol/water partition coefficient, shake flask method
Type: physicochemical
Conditions: octanol/water, 4 hours at room temperature, read-out: Oct/Water (log P)
Method: HPLC purification was achieved using a reverse-phase Lichrospher column (250×4 mm, Hewlett-Packard, RP-18, Cat. #79925) and an isocratic flow (1 ml/minute) consisting of water (70%) and acetonitrile (30%). Melting points were determined using a Melt John's apparatus and are uncorrected. […] The octanol/water partition coefficient was determined by the shake flask method. […] The two phases were carefully separated and filtered through a Millipore filter and analyzed by HPLC. […]
propertyLabel: logP at 4 h
I only need the number, thanks.

Which logP at 4 h is reported for this compound? Cc1cn([C@H]2C=C[C@@H](CO)O2)c(=O)[nH]c1=O [d4T, 2′, 3′-Didehydro-3′-deoxy thymidine, reference compound]
-0.59
